target: human GlyT1c transporter (Homo sapiens, UniProt P48067); construct: expressed in transfected cells; host or cells: CHO cells (recombinant; line hGlyT1c_5_CHO is named for the uptake assay); experiment: Radioligand binding assay using recombinant CHO cell membranes expressing human GlyT1; settings: radioligand binding to human GlyT1c transporter-expressing membranes
Sequence (P48067 whole entry): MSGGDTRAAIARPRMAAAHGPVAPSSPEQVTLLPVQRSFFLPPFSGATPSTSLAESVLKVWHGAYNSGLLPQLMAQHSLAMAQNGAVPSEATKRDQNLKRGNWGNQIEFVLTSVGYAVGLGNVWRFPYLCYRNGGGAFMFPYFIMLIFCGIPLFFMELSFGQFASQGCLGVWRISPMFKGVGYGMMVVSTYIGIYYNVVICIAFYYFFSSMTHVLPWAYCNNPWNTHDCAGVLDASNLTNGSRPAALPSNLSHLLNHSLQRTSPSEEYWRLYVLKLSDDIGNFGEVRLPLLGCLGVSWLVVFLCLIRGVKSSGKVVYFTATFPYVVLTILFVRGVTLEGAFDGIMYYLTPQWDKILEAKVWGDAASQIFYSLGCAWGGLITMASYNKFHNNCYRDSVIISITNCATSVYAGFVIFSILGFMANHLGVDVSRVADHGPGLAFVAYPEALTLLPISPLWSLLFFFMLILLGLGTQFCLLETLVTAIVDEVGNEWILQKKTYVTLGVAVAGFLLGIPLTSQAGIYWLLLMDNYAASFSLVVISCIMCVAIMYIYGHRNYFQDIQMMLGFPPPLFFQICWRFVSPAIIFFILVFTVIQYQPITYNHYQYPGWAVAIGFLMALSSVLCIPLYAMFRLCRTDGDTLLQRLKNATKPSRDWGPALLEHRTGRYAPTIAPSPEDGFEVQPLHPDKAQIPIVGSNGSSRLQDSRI
Assay Metric: Ki

Task item: Using the record for O=C(N[C@@H]1CN(S(=O)(=O)c2ccc(C(F)(F)F)cc2)C[C@H]1c1ccccc1)c1cc(Cl)cc(Cl)c1 (relative stereo) , state its measured Ki.
Reply: ≤ 10 µM

Task item: Using the record for CCCCC(CC)CN[C@H]1CN(S(=O)(=O)c2cn(C)cn2)C[C@@H]1c1ccccc1 (stereo partly shown) , state its measured Ki.
Reply: ≤ 0.1 µM

Task item: Using the record for `CC(C)COc1cc(N[C@H]2CN(S(=O)(=O)c3cn(C)cn3)C[C@@H]2c2ccc(F)cc2)ncn1` , state its measured Ki.
Reply: ≤ 0.1 µM

Task item: Using the record for CC(CN[C@H]1CN(S(=O)(=O)c2cn(C)cn2)C[C@@H]1c1ccccc1)C(F)(F)F (stereo partly shown) , state its measured Ki.
Reply: ≤ 10 µM

###

target: human GlyT1c transporter (Homo sapiens, UniProt P48067); construct: expressed in transfected cells; host or cells: CHO cells (recombinant; line hGlyT1c_5_CHO is named for the uptake assay); test: Radioligand binding assay using recombinant CHO cell membranes expressing human GlyT1; conditions: radioligand binding to human GlyT1c transporter-expressing membranes
Assay Metric: Ki

Task item: Using the record for Cn1cnc(S(=O)(=O)N2C[C@@H](CNc3ccccc3)[C@H](c3ccc(F)cc3)C2)c1 (relative stereo) , state its measured Ki.
Reply: ≤ 10000 nM

Task item: Using the record for `COCCCN[C@H]1CN(S(=O)(=O)c2cn(C)cn2)C[C@@H]1c1ccccc1` , state its measured Ki.
Reply: ≤ 10000 nM

Task item: Using the record for Cn1cnc(S(=O)(=O)N2C[C@@H](Nc3nccc(C(F)(F)F)n3)[C@H](c3ccccc3)C2)c1 (relative stereo) , state its measured Ki.
Reply: ≤ 10000 nM

Task item: Using the record for `Cn1cnc(S(=O)(=O)N2C[C@H](Nc3cccc(C(F)(F)F)n3)[C@@H](c3ccc(F)cc3)C2)c1` , state its measured Ki.
Reply: ≤ 1000 nM

Task item: Using the record for Cn1cnc(S(=O)(=O)N2C[C@@H](Nc3ccc(F)c(F)c3)[C@H](c3ccc(F)cc3)C2)c1 (relative stereo) , state its measured Ki.
Reply: ≤ 100 nM

Task item: Using the record for N#Cc1ccccc1S(=O)(=O)N1C[C@@H](Nc2ccc(F)cc2)[C@H](c2ccccc2)C1 (relative stereo) , state its measured Ki.
Reply: ≤ 10000 nM

Task item: Using the record for `Cn1cnc(S(=O)(=O)N2C[C@H](NCc3nc(Br)cs3)[C@@H](c3ccccc3)C2)c1` , state its measured Ki.
Reply: ≤ 1000 nM

Task item: Using the record for `Cn1cnc(S(=O)(=O)N2C[C@H](Nc3ccc4c(c3)CCCO4)[C@@H](c3ccccc3)C2)c1` , state its measured Ki.
Reply: ≤ 1000 nM

Task item: Using the record for CCCCCCN[C@@H]1CN(S(=O)(=O)c2cn(C)nn2)C[C@H]1c1ncccc1F (relative stereo) , state its measured Ki.
Reply: ≤ 100 nM

Task item: Using the record for `Cn1cnc(S(=O)(=O)N2C[C@H](NCc3cc(Cl)sc3Cl)[C@@H](c3ccccc3)C2)c1` , state its measured Ki.
Reply: ≤ 10 nM

Task item: Using the record for `Cn1cnc(S(=O)(=O)N2C[C@H](Nc3ncnc4[nH]ccc34)[C@@H](c3ccccc3)C2)c1` , state its measured Ki.
Reply: ≤ 10000 nM

Task item: Using the record for Cn1cnc(S(=O)(=O)N2C[C@@H](NCc3ccc(Cl)cc3)[C@H](c3ccc(F)cc3)C2)c1 (relative stereo) , state its measured Ki.
Reply: ≤ 10 nM

Task item: Using the record for Cn1cnc(S(=O)(=O)N2C[C@@H](C(=O)Nc3cc(Cl)cc(Cl)c3)[C@H](c3ccc(F)cc3)C2)c1 (relative stereo) , state its measured Ki.
Reply: ≤ 1000 nM

Task item: Using the record for O=S(=O)(c1c(Cl)nc2sccn12)N1CC(Nc2ccc(F)c(F)c2)C(c2ccccc2)C1 (centres unmarked) , state its measured Ki.
Reply: ≤ 10000 nM

###

molecular target: human GlyT1c transporter (Homo sapiens, UniProt P48067); construct: expressed in transfected cells; host or cells: CHO cells (recombinant; line hGlyT1c_5_CHO is named for the uptake assay); assay: Radioligand binding assay using recombinant CHO cell membranes expressing human GlyT1; settings: radioligand binding to human GlyT1c transporter-expressing membranes
Assay Metric: Ki

Task item: Using the record for Cn1cnc(S(=O)(=O)N2C[C@@H](Nc3cccc(Cl)c3)[C@H](c3ccc(F)cc3)C2)c1 [Example 325] , state its measured Ki.
Reply: ≤ 1 µM

Task item: Using the record for Cc1nn(C)cc1S(=O)(=O)N1C[C@@H](NC(=O)c2cccc(C(F)(F)F)c2Cl)[C@H](c2ccccc2)C1 (relative stereo) , state its measured Ki.
Reply: ≤ 10 µM

Task item: Using the record for Cn1cnc(S(=O)(=O)N2CC(Nc3cccnn3)C(c3ccc(F)cc3)C2)c1 (stereo not shown) , state its measured Ki.
Reply: > 10 µM

Task item: Using the record for `Cn1cnc(S(=O)(=O)N2C[C@H](NCc3cccn4ccnc34)[C@@H](c3ccccc3)C2)c1` , state its measured Ki.
Reply: ≤ 10 µM

###

Could you please report measured Ki for the items listed next?
molecular target: human GlyT1c transporter (Homo sapiens); construct: expressed in transfected cells; host or cells: CHO cells (recombinant; line hGlyT1c_5_CHO is named for the uptake assay); experiment: Radioligand binding assay using recombinant CHO cell membranes expressing human GlyT1; settings: radioligand binding to human GlyT1c transporter-expressing membranes

Task item: Using the record for Cn1cnc(S(=O)(=O)N2C[C@@H](NC(=O)c3ccc(C(F)(F)F)cc3)[C@H](c3ccccc3)C2)c1 (relative stereo) [Example 37] , state its measured Ki.
Reply: ≤ 1 µM

Task item: Using the record for Cn1cnc(S(=O)(=O)N2C[C@H](Nc3cc(-c4cccc(Cl)c4)ncn3)[C@@H](c3ccc(F)cc3)C2)c1 [Example 729] , state its measured Ki.
Reply: ≤ 0.01 µM

Task item: Using the record for Cn1cnc(S(=O)(=O)N2C[C@@H](NCc3cccnc3)[C@H](c3ccc(F)cc3)C2)c1 (relative stereo) [Example 269] , state its measured Ki.
Reply: ≤ 10 µM

Task item: Using the record for Cn1cnc(S(=O)(=O)N2C[C@H](Nc3cccc(-c4ccccn4)c3)[C@@H](c3ccccc3)C2)c1 [Example 802] , state its measured Ki.
Reply: ≤ 0.1 µM

Task item: Using the record for Cn1cnc(S(=O)(=O)N2C[C@@H](Nc3cc(F)c(F)c(Cl)c3)[C@H](c3ccccc3)C2)c1 (relative stereo) [Example 219] , state its measured Ki.
Reply: ≤ 10 µM

Task item: Using the record for Cn1cnc(S(=O)(=O)N2C[C@@H](CNCC3CC3)[C@H](c3ccc(F)cc3)C2)c1 [Example 607] , state its measured Ki.
Reply: ≤ 10 µM

Task item: Using the record for CCOC(=O)N[C@H]1CN(S(=O)(=O)c2cn(C)cn2)C[C@@H]1c1ccccc1 [Example 541] , state its measured Ki.
Reply: ≤ 10 µM

Task item: Using the record for C=C(C)CO[C@@H]1CN(S(=O)(=O)c2cn(C)cn2)C[C@H]1Nc1cccc(Cl)c1 (relative stereo) [Example 403] , state its measured Ki.
Reply: ≤ 0.1 µM

Task item: Using the record for Cn1cnc(S(=O)(=O)N2C[C@@H](NC(=O)c3cccc(C(F)(F)F)c3Cl)[C@H](c3cccc(Cl)c3)C2)c1 (relative stereo) [Example 56] , state its measured Ki.
Reply: ≤ 1 µM

Task item: Using the record for Cn1cnc(S(=O)(=O)N2C[C@H](Nc3cccc(F)c3)[C@@H](c3ccc(F)cc3)C2)c1 [Example 353] , state its measured Ki.
Reply: ≤ 0.1 µM

Task item: Using the record for O=C(N[C@@H]1CN(S(=O)(=O)CC2CC2)C[C@H]1c1ccccc1)c1cccc(C(F)(F)F)c1Cl (relative stereo) [Example 130] , state its measured Ki.
Reply: > 10 µM

Task item: Using the record for Cn1cnc(S(=O)(=O)N2C[C@@H](Nc3ccc(Cl)c(C(F)(F)F)c3)[C@H](c3ccccc3)C2)c1 (relative stereo) [Example 217] , state its measured Ki.
Reply: ≤ 1 µM

Task item: Using the record for Cn1cnc(S(=O)(=O)N2C[C@@H](COc3cc(C(F)(F)F)ncn3)[C@H](c3ccc(F)cc3)C2)c1 (relative stereo) [Example 336] , state its measured Ki.
Reply: ≤ 1 µM

Task item: Using the record for Cn1cnc(S(=O)(=O)N2CC(Nc3ccc(F)c(F)c3)C(C3CCCO3)C2)c1 (stereo not drawn) [Example 610] , state its measured Ki.
Reply: ≤ 10 µM

Task item: Using the record for Cn1cnc(S(=O)(=O)N2C[C@@H](Nc3ccc4cnccc4c3)[C@H](c3ccccc3)C2)c1 (relative stereo) [Example 230] , state its measured Ki.
Reply: ≤ 10 µM

Task item: Using the record for Cn1cnc(S(=O)(=O)N2C[C@H](NC(=O)NCc3ccccc3)[C@@H](c3ccc(F)cc3)C2)c1 [Example 742] , state its measured Ki.
Reply: ≤ 1 µM

Task item: Using the record for Cn1cnc(S(=O)(=O)N2C[C@@H](Nc3ccccc3C(F)(F)F)[C@H](c3ccc(F)cc3)C2)c1 (relative stereo) [Example 87] , state its measured Ki.
Reply: ≤ 10 µM

Task item: Using the record for O=c1[nH]c(=O)c2cc(S(=O)(=O)N3CC(Nc4ccc(F)c(F)c4)C(c4ccccc4)C3)ccc2[nH]1 (stereo not drawn) [Example 480] , state its measured Ki.
Reply: > 10 µM

Task item: Using the record for Cn1cnc(S(=O)(=O)N2C[C@@H](COc3ccc(F)c(C(F)(F)F)c3)[C@H](c3ccc(F)cc3)C2)c1 (relative stereo) [Example 295] , state its measured Ki.
Reply: ≤ 0.1 µM

Task item: Using the record for COCCNC(=O)[C@@H]1CN(S(=O)(=O)c2cn(C)cn2)C[C@H]1c1ccc(F)cc1 [Example 579] , state its measured Ki.
Reply: ≤ 10 µM

Task item: Using the record for Cn1cnc(S(=O)(=O)N2C[C@@H](Nc3cccc(OC(F)(F)F)c3)[C@H](c3ccccc3)C2)c1 (relative stereo) [Example 226] , state its measured Ki.
Reply: ≤ 0.01 µM

Task item: Using the record for Cn1cnc(S(=O)(=O)N2C[C@@H](Nc3ccccc3)[C@H](c3ccccc3F)C2)c1 (relative stereo) [Example 198] , state its measured Ki.
Reply: ≤ 1 µM

Task item: Using the record for CC(C)COc1cc(N[C@H]2CN(S(=O)(=O)c3cn(C)cn3)C[C@@H]2c2ccccc2)ncn1 [Example 624] , state its measured Ki.
Reply: ≤ 1 µM

Task item: Using the record for Cn1cnc(S(=O)(=O)N2CC(Nc3ccc(F)c(C(F)F)c3)C(c3ccc(F)cc3)C2)c1 (stereo not drawn) [Example 310] , state its measured Ki.
Reply: ≤ 0.1 µM

Task item: Using the record for Cn1cnc(S(=O)(=O)N2C[C@H](Nc3ncc(F)c(C(F)(F)F)c3F)[C@@H](c3ccccc3)C2)c1 [Example 408] , state its measured Ki.
Reply: ≤ 10 µM

Task item: Using the record for Cn1cnc(S(=O)(=O)N2C[C@H](NCCCCC(C)(F)F)[C@@H](c3ccc(F)cc3)C2)c1 [Example 739] , state its measured Ki.
Reply: ≤ 0.1 µM

Task item: Using the record for Cn1cnc(S(=O)(=O)N2C[C@H](Nc3ccc4ccsc4c3)[C@@H](c3ccc(F)cc3)C2)c1 [Example 677] , state its measured Ki.
Reply: ≤ 1 µM
